# target.entity: human MyD88 (human) (UniProt Q99836)
# method: P8 phage display panning on plate-immobilised MyD88, after round 4, NGS
metric: NGS count (count)

1. YLRADDSWFWEKLLYA = 4070

I = VQWDDPWFWDKLAYAM
II = DWVWDYLLPNLEGPAG
III = QLIQQWIELHLHQLHL
Task item: Task field, ranking: reported NGS count, descending order. // format: requested-order list of labels
Reply: II, I, III
